molecular target: T1, hK1 (human tissue kallikrein 1), recombinant (human, UniProt P06870 25-262); assay: SPR
T1 construct: Expressed in P. pastoris from KLK1 cDNA and purified; enzymatically active; also called KLK1; Recombinant (Pichia) Kallikrein
# koff listing for each entry below
Give the quantity in s⁻¹, number only.

Examples with their reported koff follow.
**Query** Can you share its koff? I mean this binder: M0131-C08 (Fab, V domains shown) VH: EVQLLESGGGLVQPGGSLRLSCAASGFTFSWYSMTWVRQAPGKGLEWVSSISPSGGATKYADSVKGRFTISRDNSKNTLYLQMNSLRAEDTAVYYCARGGAASLPFDYWGQGTLVTVSS VL: DIQMTQSPSSVSASVGDRVTITCRASQDVLVSFAWYQQRPGTAPKLLIYAASHLHPGVPSRFSASGSGTDFTLTINGLQPEDFATYYCQQARSFPHTFGQGTRLEKKR
**Result** 0.00466

**Query** Please answer likewise for M0131-G06 (Fab, V domains shown) VH: EVQLLESGGGLVQPGGSLRLSCAASGFTFSSYAMTWVRQAPGKGLEWVSSISSSGGDTAYADSVKGRFTISRDNSKNTLYLQMNSLRAEDTAVYYCATERHYIWGSYRYSWFDPWGQGTLVTVSS VL: AQYELTQAPSASGTPGQRVTISCSGSRSNIGTNPVNWYQHVPGTAPKLLILVNNQRPSGVPDRFSGSKSGASASLAISGLQSEDEAEYYCATWDGSLNGPVFGGGTKLTVLR
**Result** 0.00209

# next binder below
**Query** Can you share its koff? I mean this binder: M0129-B09 (Fab, V domains shown) VH: EVQLLESGGGLVQPGGSLRLSCAASGFTFSRYWMHWVRQAPGKGLEWVSSIGPSGGVTKYADSVKGRFTISRDNSKNTLYLQMNSLRAEDTAVYYCARHGSWGGMDVWGQGTTVTVSS VL: DIQMTQSPSFLSASVGDRVTITCRASQGISSYLAWYQQKPGKAPKLLIYAASTLQSGVPSRFSGSGSGTEFTLTISSLQPEDFATYYCQQLNSYPRTFGQGTKVEIKR
**Result** 0.022
